Biological target: α1C Human Adrenergic Receptor (Homo sapiens)
Construct: The entire coding region of α1C (1401 bp); expressed in transfected cells
Sequence (P35348 1-466): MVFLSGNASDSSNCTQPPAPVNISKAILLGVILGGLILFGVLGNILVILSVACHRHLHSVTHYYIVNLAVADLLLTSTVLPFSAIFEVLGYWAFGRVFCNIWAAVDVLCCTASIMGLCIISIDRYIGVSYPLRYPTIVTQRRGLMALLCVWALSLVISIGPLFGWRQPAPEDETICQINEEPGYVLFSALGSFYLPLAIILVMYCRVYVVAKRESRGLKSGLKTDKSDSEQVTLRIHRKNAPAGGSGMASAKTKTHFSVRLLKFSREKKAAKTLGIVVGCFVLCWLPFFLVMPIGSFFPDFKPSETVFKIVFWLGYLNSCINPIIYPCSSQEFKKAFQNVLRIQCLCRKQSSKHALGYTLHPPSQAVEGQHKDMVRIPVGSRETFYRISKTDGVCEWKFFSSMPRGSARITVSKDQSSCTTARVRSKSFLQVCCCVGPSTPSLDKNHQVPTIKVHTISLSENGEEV
Assay: Radioligand binding, [3H]prazosin, cloned human α1C adrenergic receptor
Details: pKi alpha-1 1c, cloned human α1C receptor, LM(tk−) cell membranes
READOUT KIND: Ki (nM)
# unit: nM | format: bare number

# example entries with known answers
* CCCC1=C(C(=O)O)C(c2ccc([N+](=O)[O-])cc2)C(C(=O)NCCCN2CCC(c3ccccc3)(c3ccccc3)CC2)=C(CCC)N1 (stereo not drawn) | 38.9
* CC1=C(C(N)=O)C(c2ccc(S(C)(=O)=O)cc2)C(C(=O)NCCCN2CCC(c3ccccc3)(c3ccccc3)CC2)=C(C)N1 (stereo not drawn) | 58.9
* CCC1=C(C(=O)NCCCN2CCC(c3ccccc3)(c3ccccc3)CC2)C(c2cccc(OC)c2)C(C(=O)NCCCN2CCC(c3ccccc3)(c3ccccc3)CC2)=C(CC)N1 | 24.5
* CCC1=C(C(=O)NCCCN2CCC(c3ccccc3)(c3ccccc3)CC2)C(c2ccc([N+](=O)[O-])cc2)C(C(=O)NC)=C(COCCN=[N+]=[N-])N1 (stereo not drawn) | 12.3
* CCNC(=O)C1=C(C)NC(C)=C(C(=O)NCCCN2CCC(c3ccccc3)(c3ccccc3)CC2)C1c1ccc([N+](=O)[O-])cc1 (stereo not drawn) | 4.57

// next entry
Give Ki for CCC1=C(C(=O)NCCCN2CCC(c3ccccc3)(c3ccccc3)CC2)C(c2ccc([N+](=O)[O-])cc2)C(C(N)=O)=C(COCCN=[N+]=[N-])N1 (stereo not drawn)
5.5

###

melting point overview
Where a name gives a salt, the structure may show the parent alone.

Take a look at these entries with their results.
* COC(=O)C1=C(C)NC(C)=C(C(=O)NCCCN2CCC(c3ccccc3)(c3ccccc3)CC2)C1c1ccc(C#N)cc1 (centres unmarked) [Example 12] | 115 to 118 °C
* CCC1=C(C(N)=O)C(c2ccc([N+](=O)[O-])cc2)C(C(=O)NCCCN2CCC(C(=O)OC)(c3ccccc3)CC2)=C(COCCN=[N+]=[N-])N1 (centres unmarked) [Example 231] | 70 to 75 °C
* CCNC(=O)C1=C(CC)NC(COCCN=[N+]=[N-])=C(C(=O)NCCCN2CCC(c3ccccc3)(c3ccccc3)CC2)C1c1ccc([N+](=O)[O-])cc1 (centres unmarked) [Example 145] | 82 to 87 °C
* COC(=O)C1=C(C)NC(C)=C(C(=O)NCCCN2CCC(c3ccccc3)CC2)C1c1cccc([N+](=O)[O-])c1 (centres unmarked) [Example 30] | 78 to 80 °C
* CCC1=C(C(=O)NCCCN2CCC(c3ccccc3)(c3ccccc3)CC2)C(c2ccc(N)cc2)C(C(=O)OC)=C(C)N1 (centres unmarked) (as salt: salt) [Example 114] | 169 to 172 °C (dec.)
* CCC1=C(C(N)=O)C(c2ccc([N+](=O)[O-])cc2)C(C(=O)NCCCN2CCC(C#N)(c3ccccc3)CC2)=C(CC)N1 (racemic) (as salt: hydrochloride) (hydrate or solvate) [(±)-102, hydrochloride hydrate] | 230 °C (dec.)
* CCOC(=O)C1(c2ccccc2)CCN(CCCNC(=O)C2=C(COCCN)NC(CC)=C(C(=O)NC)C2c2ccc([N+](=O)[O-])cc2)CC1 (centres unmarked) [Example 194] | 51 to 53 °C
* CCC1=C(C(N)=O)C(c2ccc([N+](=O)[O-])cc2)C(C(=O)NCCCN2CCC(C(=O)OC)(c3ccccc3)CC2)=C(CC)N1 (centres unmarked) [Example 200] | 112 to 114 °C
* CC(=O)C1=C(C)NC(C)=C(C(=O)NCCCN2CCC(c3ccccc3)(c3ccccc3)CC2)C1c1ccc([N+](=O)[O-])cc1 (centres unmarked) (as salt: hydrochloride) (hydrate or solvate) [Example 47] | 173 to 174 °C
* COC(=O)C1=C(C)NC(C)=C(C(=O)NCCCN2CCC(c3ccccc3)(c3ccccc3)CC2)C1c1ccc([N+](=O)[O-])c(OC)c1 (centres unmarked) [Example 29] | 211 to 213 °C

Next up:
Provide one value: measured melting point of CCC1=C(C(N)=O)C(c2ccc([N+](=O)[O-])cc2)C(C(=O)NCCCN2CCC(O)(c3ccccc3)CC2)=C(CC)N1 (centres unmarked) (as salt: hydrochloride) (hydrate or solvate) [Example 100, hydrochloride hydrate]
165 °C (dec.)

###

Listed here: items and their measured pKi alpha-1 1c.
Molecular target: α1C Human Adrenergic Receptor (Homo sapiens, UniProt P35348)
Construct: The entire coding region of α1C (1401 bp); expressed in transfected cells
Sequence (P35348 1-466): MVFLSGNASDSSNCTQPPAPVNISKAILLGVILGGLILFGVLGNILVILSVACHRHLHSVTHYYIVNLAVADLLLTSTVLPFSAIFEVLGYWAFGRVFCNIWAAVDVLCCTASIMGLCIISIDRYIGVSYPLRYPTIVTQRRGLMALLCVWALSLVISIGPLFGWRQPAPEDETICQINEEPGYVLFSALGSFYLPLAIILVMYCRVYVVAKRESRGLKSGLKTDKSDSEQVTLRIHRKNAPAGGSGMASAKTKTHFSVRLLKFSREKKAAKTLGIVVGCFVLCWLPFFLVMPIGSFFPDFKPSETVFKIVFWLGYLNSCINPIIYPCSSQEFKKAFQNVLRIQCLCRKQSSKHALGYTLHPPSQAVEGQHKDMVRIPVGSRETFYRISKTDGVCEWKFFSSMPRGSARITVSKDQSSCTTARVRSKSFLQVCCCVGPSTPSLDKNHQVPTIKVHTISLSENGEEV
Assay: Radioligand binding, [3H]prazosin, cloned human α1C adrenergic receptor
Conditions: cloned human receptor in LM(tk-) cell membranes, SEM and n in lines below
Simply state the number, no unit and no words.

* COc1cc2c(c(OC)c1)CCN(CCCNC(=O)C1=C(c3ccoc3)NC(C)=C(C(N)=O)C1c1ccc([N+](=O)[O-])cc1)C2.Cl.O (stereo not drawn) [Example 67] | 6.48
* CCC1=C(C(=O)NCCCCN2CCC(c3ccccc3)CC2)C(c2ccc([N+](=O)[O-])cc2)C(C(N)=O)=C(C)N1.Cl.O (stereo not drawn) [Example 77] | 8.30
* CNC(=O)C1=C(C)NC(C)=C(C(=O)NCCCN2CCC(c3ccccc3)(c3ccccc3)CC2)C1c1ccc([N+](=O)[O-])cc1 (stereo not drawn) [Example 38] | 8.50
* CC1=C(C(=O)NCCCN2CCC(c3ccccc3)(c3ccccc3)CC2)C(c2ccc([N+](=O)[O-])cc2)C(C(=O)N(C)C)=C(C)N1 (stereo not drawn) [Example 39] | 7.23
* CCC1=C(C(=O)NCCCN2CCc3cc(OC)c(OC)cc3C2)C(c2ccc([N+](=O)[O-])cc2)C(C(N)=O)=C(C)N1.Cl.O (stereo not drawn) [Example 76] | 6.63

Recall and state the measured pKi alpha-1 1c for COC(=O)C1=C(C)NC(C)=C(C(=O)NCCCCN2CCC(c3ccccc3)(c3ccccc3)CC2)C1c1ccc([N+](=O)[O-])cc1.Cl.O (stereo not drawn) [Example 53] .
7.83

###

Molecular target: α2A receptor (Homo sapiens)
Construct: host or cells: LM(tk-) cells, line L-α2A
Sequence (P08913 whole entry): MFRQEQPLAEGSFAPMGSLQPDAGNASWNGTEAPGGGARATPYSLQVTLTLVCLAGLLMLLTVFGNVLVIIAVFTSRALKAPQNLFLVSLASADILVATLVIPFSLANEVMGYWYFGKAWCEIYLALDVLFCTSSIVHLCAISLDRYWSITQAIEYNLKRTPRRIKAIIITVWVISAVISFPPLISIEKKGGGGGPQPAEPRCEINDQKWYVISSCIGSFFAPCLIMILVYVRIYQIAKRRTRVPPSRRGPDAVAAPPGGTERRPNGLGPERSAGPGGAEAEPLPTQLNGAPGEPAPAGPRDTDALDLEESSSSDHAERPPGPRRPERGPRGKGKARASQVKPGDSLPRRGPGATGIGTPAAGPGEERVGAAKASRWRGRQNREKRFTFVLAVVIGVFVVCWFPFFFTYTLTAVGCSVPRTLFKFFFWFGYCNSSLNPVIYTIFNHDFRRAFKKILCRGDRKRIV
Test: Competition binding, [3H]rauwolscine, human α2A receptor
Settings: [3H]rauwolscine, human receptor, LM(tk-) cell lysates; mean; read-out: PKi alpha-2 2a (converted)
Description: The protocols for these experiments are given below. α2 Human Adrenergic Receptors: To determine the potency of […], antagonists at the α2 receptors, LM(tk−) cell lines stably transfected with the genes encoding the α2A, α2B, and α2C receptors were used. The cell line expressing the α2A receptor is designated L-α2A, and was deposited on Nov. […] Equilibrium competition binding assay were performed using [3H]rauwolscine (0.5 nM), and nonspecific binding was determined by incubation with 10 μM phentolamine. […]
Field 'label' (enum: class 1 / class 0). Set to class 1 when Ki is strictly under 1000 nM; else class 0.

Would you please look over these solved cases?
• CCOC(=O)C1(c2ccccc2)CCN(CCCNC(=O)C2=C(COCCN)NC(CC)=C(C(=O)O)C2c2ccc([N+](=O)[O-])cc2)CC1 (centres unmarked) = class 0
• COC(=O)C1(c2ccccc2)CCN(CCCNC(=O)C2=C(COCCN=[N+]=[N-])NC(C)=C(C(N)=O)C2c2ccc([N+](=O)[O-])cc2)CC1 (centres unmarked) = class 0
• CCC1=C(C(=O)NC)C(c2ccc([N+](=O)[O-])cc2)C(C(=O)NCCCN2CCC(c3ccccc3)(c3ccccc3)CC2)=C(CCCCOC)N1 (centres unmarked) = class 1

Just wondering, is Ki of CNC(=O)C1=C(C)NC(C)=C(C(=O)NCCCN2CCC(c3ccccc3)(c3ccccc3)CC2)C1c1ccc2c(c1)OCCO2 (centres unmarked) below 1000 nM?
class 0

Please state whether Ki is below 1000 nM for CCC1=C(C(=O)NC)C(c2ccc([N+](=O)[O-])cc2)C(C(=O)NCCCN2CCC(c3ccccc3)(c3ccccc3)CC2)=C(CCCCN)N1 (centres unmarked)
class 0

Bench note: check whether CCC1=C(C(N)=O)C(c2ccc([N+](=O)[O-])cc2)C(C(=O)NCCCN2CCC(C(=O)OC)(c3ccccc3)CC2)=C(CCCCN=[N+]=[N-])N1 (centres unmarked) shows Ki below 1000 nM
class 0

Could you please tell me whether Ki recorded for CCC1=C(C(N)=O)C(c2ccc([N+](=O)[O-])cc2)C(C(=O)NCCCN2CCC(C(=O)OC)(c3ccccc3)CC2)=C(COCCN)N1 (centres unmarked) is less than 1000 nM?
class 0

Input CCC1=C(C(=O)NC)C(c2ccc([N+](=O)[O-])cc2)C(C(=O)NCCCN2CCC(C(=O)OC)(c3ccccc3)CC2)=C(CCCCOC)N1 (centres unmarked) ; condition: Ki strictly below 1000 nM. Does it hold?
class 0

Does CCOC(=O)C1=C(C)NC(C)=C(C(=O)NCCCN2CCC(C(=O)OC)(c3ccccc3)CC2)C1c1ccc([N+](=O)[O-])cc1 (centres unmarked) have Ki strictly under 1000 nM?
class 0

Problem: For the molecule COC(=O)C1(c2ccccc2)CCN(CCCNC(=O)C2=C(CCCCN)NC(C)=C(C(C)=O)C2c2ccc([N+](=O)[O-])cc2)CC1 (centres unmarked) , is Ki under 1000 nM?
class 1
